- experimental.target: recombinant guanylate cyclase reporter cell line (Rattus norvegicus, UniProt P19686+P20595)
- Construct: expressed in transfected cells
- Sequence (P20595 whole entry): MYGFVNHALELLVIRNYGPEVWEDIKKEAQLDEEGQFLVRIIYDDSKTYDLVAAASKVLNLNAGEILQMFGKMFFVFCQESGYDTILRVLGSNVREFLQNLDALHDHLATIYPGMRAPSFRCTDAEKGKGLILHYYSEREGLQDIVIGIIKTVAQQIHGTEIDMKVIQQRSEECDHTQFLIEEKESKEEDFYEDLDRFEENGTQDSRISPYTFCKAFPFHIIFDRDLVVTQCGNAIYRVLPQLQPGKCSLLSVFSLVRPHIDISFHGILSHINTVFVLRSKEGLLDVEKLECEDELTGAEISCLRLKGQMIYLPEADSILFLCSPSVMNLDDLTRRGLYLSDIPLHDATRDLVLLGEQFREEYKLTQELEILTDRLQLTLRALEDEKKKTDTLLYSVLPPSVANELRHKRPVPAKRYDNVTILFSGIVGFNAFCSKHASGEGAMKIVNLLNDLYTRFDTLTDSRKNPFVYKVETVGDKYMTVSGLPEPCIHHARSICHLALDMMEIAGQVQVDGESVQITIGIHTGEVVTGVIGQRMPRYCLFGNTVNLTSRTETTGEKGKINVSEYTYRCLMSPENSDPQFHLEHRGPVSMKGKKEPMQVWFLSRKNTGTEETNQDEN
- Sequence (P19686 whole entry): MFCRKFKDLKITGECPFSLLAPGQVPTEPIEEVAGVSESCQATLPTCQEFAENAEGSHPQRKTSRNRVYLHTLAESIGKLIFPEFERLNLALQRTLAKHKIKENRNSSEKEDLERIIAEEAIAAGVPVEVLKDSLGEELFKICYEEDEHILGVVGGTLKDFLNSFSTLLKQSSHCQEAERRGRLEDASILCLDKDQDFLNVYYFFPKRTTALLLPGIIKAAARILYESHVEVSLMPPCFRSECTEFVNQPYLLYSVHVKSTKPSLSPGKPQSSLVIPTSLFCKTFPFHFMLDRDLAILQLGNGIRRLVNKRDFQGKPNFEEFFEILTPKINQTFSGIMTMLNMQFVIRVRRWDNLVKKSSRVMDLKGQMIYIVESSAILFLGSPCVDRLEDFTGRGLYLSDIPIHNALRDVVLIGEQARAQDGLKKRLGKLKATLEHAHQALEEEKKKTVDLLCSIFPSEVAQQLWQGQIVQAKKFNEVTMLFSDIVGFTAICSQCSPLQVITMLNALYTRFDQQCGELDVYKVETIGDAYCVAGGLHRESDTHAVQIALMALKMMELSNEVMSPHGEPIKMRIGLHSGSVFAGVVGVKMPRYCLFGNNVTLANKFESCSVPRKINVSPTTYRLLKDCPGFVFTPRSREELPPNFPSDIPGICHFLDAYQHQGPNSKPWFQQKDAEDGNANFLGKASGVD
- assay.info: B-2. Action on recombinant guanylate cyclase reporter cell line
- Format: cell-based
- assay.conditions: MEC = minimal effective concentration; in some cases mean values from individual determinations
Reported values of MEC for individual entries
Numeric answer only, unit µM assumed.

Lab note: measured MEC of Cc1nc2c(OCc3c(F)cccc3Cl)cccn2c1C(=O)NC(CN)c1ccc(F)c(F)c1 (stereo not drawn) [Example 102] was 1.00

Record Cc1cc(OCc2c(F)cccc2F)c2nc(C)c(C(=O)NCC(C)(N)CCO)n2c1 (racemic) [Example 270] . Reported MEC: 1.00

get_value(item= Cc1nc2c(OCc3c(F)cccc3F)cc(Cl)cn2c1C(=O)NCCN1CCC(F)(F)CC1 [Example 151] , readout=MEC) returns 0.10

Entry Cc1cc(OCc2c(F)cccc2F)c2nc(C)c(C(=O)NCCN3CCN(C)CC3)n2c1 [Example 137] , MEC reported as 1.00

The molecule Cc1nc2c(OCc3c(F)cccc3F)cccn2c1C(=O)NCC1CCc2ccccc2N1 (racemic) [Example 250] showed MEC equal to 1.00
